Ref: ChEMBL document CHEMBL3046623

Measured MIC99 accompanies every entry in the list below.
tested on: Aspergillus clavatus; assay: Antifungal activity against Aspergillus clavatus MTCC 1323 after 72 hr; type: functional; conditions: MTCC 1323, 72 h
I only need the number, in µg/mL, no unit after it.

The following molecules have reported results that may help.
{"columns": ["structureNotation", "endpointValue"],
 "data": [
  ["COc1cc(/C=N/c2c(C#N)c(-c3ccccc3O)c(C#N)c(=O)n2/N=C(\\C)c2nc3ccccc3[nH]2)cc(OC)c1OC", 100],
  ["C/C(=N\\n1c(/N=C/c2cccc(O)c2)c(C#N)c(-c2ccccc2O)c(C#N)c1=O)c1nc2ccccc2[nH]1", 1000],
  ["C/C(=N\\n1c(/N=C/c2ccc(O)cc2)c(C#N)c(-c2ccccc2O)c(C#N)c1=O)c1nc2ccccc2[nH]1", 100],
  ["COC1=CC(=O)C[C@@H](C)[C@]12Oc1c(Cl)c(OC)cc(OC)c1C2=O", 100],
  ["C/C(=N\\n1c(/N=C/c2ccc(N(C)C)cc2)c(C#N)c(-c2ccccc2O)c(C#N)c1=O)c1nc2ccccc2[nH]1", 500],
  ["C/C(=N\\n1c(/N=C/c2ccccc2O)c(C#N)c(-c2ccccc2O)c(C#N)c1=O)c1nc2ccccc2[nH]1", 1000]
]}

Entry `C/C(=N\n1c(/N=C/c2ccc([N+](=O)[O-])cc2)c(C#N)c(-c2ccccc2O)c(C#N)c1=O)c1nc2ccccc2[nH]1` : reported MIC99 = ? 1000

Now the molecule `C/C(=N\n1c(/N=C/c2ccc(Cl)cc2)c(C#N)c(-c2ccccc2O)c(C#N)c1=O)c1nc2ccccc2[nH]1` 1000

---

test system: Aspergillus clavatus; test: Antifungal activity against Aspergillus clavatus MTCC 1323 after 72 hr; assay type: functional; conditions: MTCC 1323, 72 h
Measured MIC99 accompanies every entry in the list below.
Value and unit, in that order.

The following compounds have reported results that may help.
{"columns": ["structureNotation", "MIC99"],
 "data": [
  ["C/C(=N\\n1c(/N=C/c2cccc([N+](=O)[O-])c2)c(C#N)c(-c2ccccc2O)c(C#N)c1=O)c1nc2ccccc2[nH]1", "1000 µg/mL"],
  ["COc1cc(/C=N/c2c(C#N)c(-c3ccccc3O)c(C#N)c(=O)n2/N=C(\\C)c2nc3ccccc3[nH]2)ccc1O", "1000 µg/mL"],
  ["C/C(=N\\n1c(/N=C/c2ccccc2Cl)c(C#N)c(-c2ccccc2O)c(C#N)c1=O)c1nc2ccccc2[nH]1", "1000 µg/mL"]
]}

Field: next compound
Entry `C/C(=N\n1c(/N=C/c2ccccc2)c(C#N)c(-c2ccccc2O)c(C#N)c1=O)c1nc2ccccc2[nH]1` : reported MIC99 = ? 200 µg/mL
